// provenance: the MegaScale stability set (Tsuboyama et al. 2023)

B1: EHEE_rd2_0191 (parent)
chain: TTEYTFTDDEEARRAIEELKKRGLTFRYEKHGTTWRVRVD

- Variants of: B1
- procedureSummary: folding stability dG (cDNA display proteolysis); higher = more stable
- experimentalConditions: PBS, room temperature
measuredAttribute: folding stability dG (kcal/mol)
Give your result in kcal/mol as a bare value.

E3D
1.58
G32Q
0.889
E10L
1.98
K30S
0.569
E3K
0.77

# folding stability dG (variant: R38Q ) is 2.47

# folding stability dG (variant: T1L ) is 2

# folding stability dG (variant: T5F ) is 2.51

# folding stability dG (variant: R13K ) is 2.04

# folding stability dG (variant: I16G ) is -0.247

# folding stability dG (variant: E11I ) is 1.78

# folding stability dG (variant: E10Q ) is 1.95

# folding stability dG (variant: L19Y ) is 1.58
